# koff annotations
Target: T1, Recombinant mouse MMR (R&D Systems) (mouse, UniProt Q61830 20-1388)
T1 construct: Bought from R&D Systems; Immobilised on CM5 chip (SPR) or coated on plates (ELISA); also called mMMR; recombinant mMMR
T1 sequence: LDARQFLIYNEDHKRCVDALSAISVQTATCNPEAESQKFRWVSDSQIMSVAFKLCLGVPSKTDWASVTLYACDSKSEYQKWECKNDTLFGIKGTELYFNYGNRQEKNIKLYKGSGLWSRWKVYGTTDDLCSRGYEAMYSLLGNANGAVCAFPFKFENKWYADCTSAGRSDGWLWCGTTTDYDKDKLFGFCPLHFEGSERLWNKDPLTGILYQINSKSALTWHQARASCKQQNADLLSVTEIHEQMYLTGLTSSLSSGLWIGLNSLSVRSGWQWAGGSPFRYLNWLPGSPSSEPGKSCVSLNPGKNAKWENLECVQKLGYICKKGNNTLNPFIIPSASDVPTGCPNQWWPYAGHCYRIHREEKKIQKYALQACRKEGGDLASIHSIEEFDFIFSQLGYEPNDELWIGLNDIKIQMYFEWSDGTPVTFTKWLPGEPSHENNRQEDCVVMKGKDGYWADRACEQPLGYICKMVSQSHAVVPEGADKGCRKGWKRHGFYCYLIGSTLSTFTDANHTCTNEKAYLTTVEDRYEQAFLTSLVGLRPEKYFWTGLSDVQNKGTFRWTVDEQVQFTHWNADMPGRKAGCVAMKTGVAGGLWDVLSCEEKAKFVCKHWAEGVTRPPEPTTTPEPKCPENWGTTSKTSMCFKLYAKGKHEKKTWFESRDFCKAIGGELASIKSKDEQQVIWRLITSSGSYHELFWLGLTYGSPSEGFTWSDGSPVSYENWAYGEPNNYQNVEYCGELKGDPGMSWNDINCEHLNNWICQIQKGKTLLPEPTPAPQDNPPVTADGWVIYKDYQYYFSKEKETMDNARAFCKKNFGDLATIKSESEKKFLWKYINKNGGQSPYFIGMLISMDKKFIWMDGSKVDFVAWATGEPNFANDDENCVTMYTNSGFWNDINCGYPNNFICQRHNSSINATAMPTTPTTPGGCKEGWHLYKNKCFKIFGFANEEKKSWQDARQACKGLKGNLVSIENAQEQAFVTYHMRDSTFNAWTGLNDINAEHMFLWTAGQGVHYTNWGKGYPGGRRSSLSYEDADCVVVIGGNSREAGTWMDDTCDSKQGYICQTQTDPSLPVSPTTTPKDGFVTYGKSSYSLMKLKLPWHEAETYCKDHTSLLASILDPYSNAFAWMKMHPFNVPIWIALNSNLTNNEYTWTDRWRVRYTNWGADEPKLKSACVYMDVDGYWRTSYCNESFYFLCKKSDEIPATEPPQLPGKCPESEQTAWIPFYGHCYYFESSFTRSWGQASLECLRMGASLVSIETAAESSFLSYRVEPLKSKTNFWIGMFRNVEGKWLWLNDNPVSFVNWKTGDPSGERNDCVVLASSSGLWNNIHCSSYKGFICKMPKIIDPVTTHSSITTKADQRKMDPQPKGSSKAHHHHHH
Assay: SPR, BIAcore T100, MMR on CM5 chip, Nanobody as analyte
Observable: koff

# Binder, Assay value
records = [
    ("Anti-MMR Nanobody clone 1 (VHH, 99mTc-labelled at the His tail in the in vivo experiments; also called Anti-MMR Nb1; Nb MMR cl1) VHH: QVQLQESGGGLVQPGGSLRLSCAASGNIFSINAIGWYRQAPGKQRELVATITLSGSTNYADSVKGRFSISRDNAKNTVYLQMNSLKPEDTAVYYCNANTYSDSDVYGYWGQGTQVTVSS", "0.0133 s⁻¹"),
    ("Bivalent anti-MMR Nanobody 1 with human IgA hinge linker (VHH, Bivalent tandem of two clone 1 VHH domains in one chain; also called biv MMR linker 3 IgA; MMR biv IgA) QVQLQESGGGLVQPGGSLRLSCAASGNIFSINAIGWYRQAPGKQRELVATITLSGSTNYADSVKGRFSISRDNAKNTVYLQMNSLKPEDTAVYYCNANTYSDSDVYGYWGQGTQVTVSSSPSTPPTPSPSTPPASQVQLQESGGGLVQPGGSLRLSCAASGNIFSINAIGWYRQAPGKQRELVATITLSGSTNYADSVKGRFSISRDNAKNTVYLQMNSLKPEDTAVYYCNANTYSDSDVYGYWGQGTQVTVSSHHHHHH", "0.00428 s⁻¹"),
    ("Bivalent anti-MMR Nanobody 1 with (Gly4Ser)3 linker (VHH, Bivalent tandem of two clone 1 VHH domains in one chain; also called biv MMR linker 1 GS; MMR biv (Gly4Ser)3) QVQLQESGGGLVQPGGSLRLSCAASGNIFSINAIGWYRQAPGKQRELVATITLSGSTNYADSVKGRFSISRDNAKNTVYLQMNSLKPEDTAVYYCNANTYSDSDVYGYWGQGTQVTVSSGGGGSGGGGSGGGGSQVQLQESGGGLVQPGGSLRLSCAASGNIFSINAIGWYRQAPGKQRELVATITLSGSTNYADSVKGRFSISRDNAKNTVYLQMNSLKPEDTAVYYCNANTYSDSDVYGYWGQGTQVTVSSHHHHHH", "0.0044 s⁻¹"),
    ("Anti-MMR Nanobody clone 3 (VHH, Monovalent, His-tagged; also called Anti-MMR Nb3; Nb clone 3) VHH: QVQLQESGGGLVQAGGSLRLSCAASGRTFSRDAMGWFRQAPGKEREFVAGISWSGGSTYYADSVKGRFTISRDGAKNTVNLQMNSLKPEDTAVYYCAASSIYGSAVVDGLYDYWGQGTQVTVSS", "0.0186 s⁻¹"),
]
